Values from patent USRE47193E1

- EXPERIMENTAL TARGET: mouse TLR7 (Mus musculus)
- PROCEDURE TEXT: Short-term in vivo (STIV) assay: oral dosing, R848 s.c., plasma IL-6
- Design: female BALB/c mice (Jackson Labs, Bar Harbor, Me.) were dosed by oral gavage; tissue Jackson Labs; host or cells: living female BALB/c mice; plasma IL-6 after s.c. R848
- PARTICULARS: 24 h; 100 mg/kg
// label = YES if % Suppression vs. Vehicle is not less than 30%, otherwise NO

These recorded examples may help you get a feel for the data.
>>> answer_label("CC1CN(c2ccc(C#N)c3ncccc23)CC(C(=O)NCC2CNCCO2)O1 (stereo not drawn)")
"NO"
>>> answer_label("CCNC(=O)C1CCN(CC2CN(c3ccc(C#N)c4ncccc34)CC(C)O2)CC1 (stereo not drawn)")
"YES"
>>> answer_label("CC[C@H]1CN(C[C@H]2CN(c3ccc(C#N)c4ncccc34)C[C@@H](C)O2)CCN1")
"YES"
>>> answer_label("CC1CN(c2ccc(C#N)c3ncccc23)CC(CN2CCC(NC(=O)C(C)C)CC2)O1 (stereo not drawn)")
"YES"
>>> answer_label("CC1CN(c2ccc(C#N)c3ncccc23)CC(C(=O)NC2CCNCC2)O1 (stereo not drawn)")
"NO"
>>> answer_label("C[C@@H]1CN(c2ccc(C#N)c3ncccc23)C[C@H](CN2CCN[C@@H](C)C2)O1")
"NO"
>>> answer_label("CC1CN(c2ccc(C#N)c3ncccc23)CC(C(=O)NC2CCCNC2)O1 (stereo not drawn)")
"NO"

# ---- query compound ----
# check: % Suppression vs. Vehicle of CC1CN(c2ccc(C#N)c3ncccc23)CC(C(=O)NCC2CCCN2)O1 (stereo not drawn) is greater than or equal to 30%
NO

###

- EXPERIMENTAL TARGET: mouse TLR7 (Mus musculus, UniProt P58681)
- PROCEDURE TEXT: Short-term in vivo (STIV) assay: oral dosing, R848 s.c., plasma IL-6
- Design: female BALB/c mice (Jackson Labs, Bar Harbor, Me.) were dosed by oral gavage; tissue Jackson Labs; host or cells: living female BALB/c mice; plasma IL-6 after s.c. R848
- PARTICULARS: 3 h; 300 mg/kg
RECORDED ENDPOINT: % Suppression vs. Vehicle (%)
The response must be a number in % with no trailing unit.

Worked cases, answers included:
>>> value_reported("C[C@@H]1CN(c2ccc(C#N)c3ncccc23)C[C@H](CN2CC[C@H](O)C2)O1 [ER-886820]")
100
>>> value_reported("CC1CN(c2ccc(C#N)c3ncccc23)CC(CN2CCCC2CO)O1 (stereo not shown) [ER-886814]")
100
>>> value_reported("CC1CN(c2ccc(C#N)c3ncccc23)CC(CN2CCNC(C)C2C)O1 (stereo not shown) [ER-887137]")
100

Next item in the queue.
Consider C[C@@H]1CN(c2ccc(C#N)c3ncccc23)C[C@H](CN2CCC(O)CC2)O1 [ER-886953] . Its measured % Suppression vs. Vehicle is 99

###

- EXPERIMENTAL TARGET: mouse TLR7 (Mus musculus)
- Sequence (P58681 27-1050): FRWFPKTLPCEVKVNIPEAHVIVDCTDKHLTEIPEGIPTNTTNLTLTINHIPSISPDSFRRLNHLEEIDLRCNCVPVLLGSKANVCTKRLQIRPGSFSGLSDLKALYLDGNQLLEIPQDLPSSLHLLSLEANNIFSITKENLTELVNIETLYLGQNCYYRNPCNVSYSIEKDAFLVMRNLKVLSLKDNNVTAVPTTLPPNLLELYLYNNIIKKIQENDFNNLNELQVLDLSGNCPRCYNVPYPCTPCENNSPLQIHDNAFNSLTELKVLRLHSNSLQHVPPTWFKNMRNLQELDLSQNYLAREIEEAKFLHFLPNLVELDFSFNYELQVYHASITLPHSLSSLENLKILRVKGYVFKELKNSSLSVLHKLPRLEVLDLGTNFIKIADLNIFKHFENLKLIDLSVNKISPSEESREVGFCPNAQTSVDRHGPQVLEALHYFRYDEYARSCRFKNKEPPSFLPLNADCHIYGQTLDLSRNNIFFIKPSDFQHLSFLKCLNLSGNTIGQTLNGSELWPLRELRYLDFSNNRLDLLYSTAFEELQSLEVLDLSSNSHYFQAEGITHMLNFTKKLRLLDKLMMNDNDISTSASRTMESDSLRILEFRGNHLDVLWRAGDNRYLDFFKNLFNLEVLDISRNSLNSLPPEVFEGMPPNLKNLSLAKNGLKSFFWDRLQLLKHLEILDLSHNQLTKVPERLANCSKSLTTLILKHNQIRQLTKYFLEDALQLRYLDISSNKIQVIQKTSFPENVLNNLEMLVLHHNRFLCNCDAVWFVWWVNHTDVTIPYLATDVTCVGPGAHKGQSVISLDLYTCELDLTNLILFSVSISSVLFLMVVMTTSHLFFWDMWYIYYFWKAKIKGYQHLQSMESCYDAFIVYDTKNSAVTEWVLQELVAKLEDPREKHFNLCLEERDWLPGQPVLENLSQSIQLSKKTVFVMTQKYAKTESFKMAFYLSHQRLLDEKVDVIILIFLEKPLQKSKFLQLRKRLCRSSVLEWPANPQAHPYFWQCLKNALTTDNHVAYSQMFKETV
- PROCEDURE TEXT: HEK-293 mouse TLR7 NF-kappaB luciferase reporter assay (CL097)
- Format: cell-based
- PARTICULARS: IC50 average, HEK-mTLR7, average of three tests
RECORDED ENDPOINT: pIC50
Would you please state pIC50, meaning minus log10 of the concentration in mol/L, as a bare number?

Test item C[C@@H]1CN(c2ccc(C#N)c3ncccc23)C[C@H](C(=O)N[C@H]2CNC[C@H]2F)O1.Cl [ER-899742, hydrochloride] ; mouse TLR7 (Mus musculus); reported pIC50 was 7.15

###

Recorded measurements of % Suppression vs. Vehicle, one per entry
- EXPERIMENTAL TARGET: mouse TLR7 (Mus musculus, UniProt P58681)
- PROCEDURE TEXT: Short-term in vivo (STIV) assay: oral dosing, R848 s.c., plasma IL-6
- Set-up: female BALB/c mice (Jackson Labs, Bar Harbor, Me.) were dosed by oral gavage; tissue Jackson Labs; host or cells: living female BALB/c mice; plasma IL-6 after s.c. R848
- PARTICULARS: 13 h; 100 mg/kg
The reply must contain the numeric value and, after it, the unit.

Consider CC1CN(c2ccc(C#N)c3ncccc23)CC(C(=O)NC2CCCNC2)O1 (stereo not shown) . Its measured % Suppression vs. Vehicle is 35%

###

- EXPERIMENTAL TARGET: TLR9 (Homo sapiens, UniProt Q9NR96)
- Sequence (Q9NR96 26-1032): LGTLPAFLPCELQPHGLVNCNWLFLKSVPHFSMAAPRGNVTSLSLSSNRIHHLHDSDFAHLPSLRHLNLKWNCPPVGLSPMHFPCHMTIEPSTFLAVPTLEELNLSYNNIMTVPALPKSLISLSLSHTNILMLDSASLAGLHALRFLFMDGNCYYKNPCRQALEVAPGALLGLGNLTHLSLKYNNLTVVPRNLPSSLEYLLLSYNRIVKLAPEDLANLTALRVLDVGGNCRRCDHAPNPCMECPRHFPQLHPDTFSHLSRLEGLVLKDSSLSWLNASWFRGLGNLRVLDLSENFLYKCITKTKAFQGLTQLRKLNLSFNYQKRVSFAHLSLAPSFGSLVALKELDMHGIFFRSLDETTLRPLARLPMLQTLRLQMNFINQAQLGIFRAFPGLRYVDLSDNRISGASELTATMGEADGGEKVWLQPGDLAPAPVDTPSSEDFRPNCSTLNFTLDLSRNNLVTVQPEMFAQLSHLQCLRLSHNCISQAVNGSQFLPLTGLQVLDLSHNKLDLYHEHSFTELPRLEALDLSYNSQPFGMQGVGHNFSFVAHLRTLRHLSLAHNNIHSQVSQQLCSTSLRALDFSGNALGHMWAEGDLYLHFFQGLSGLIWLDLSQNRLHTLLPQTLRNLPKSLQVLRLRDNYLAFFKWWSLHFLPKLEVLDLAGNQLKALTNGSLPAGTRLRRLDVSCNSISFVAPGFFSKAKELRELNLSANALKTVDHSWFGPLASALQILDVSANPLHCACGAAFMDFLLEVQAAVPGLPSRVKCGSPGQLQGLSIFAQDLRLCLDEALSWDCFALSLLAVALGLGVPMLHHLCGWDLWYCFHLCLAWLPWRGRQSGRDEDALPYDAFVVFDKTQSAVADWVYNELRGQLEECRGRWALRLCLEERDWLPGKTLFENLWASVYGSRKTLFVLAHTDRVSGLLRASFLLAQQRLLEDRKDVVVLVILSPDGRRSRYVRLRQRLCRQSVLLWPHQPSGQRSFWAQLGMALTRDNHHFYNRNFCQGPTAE
- PROCEDURE TEXT: Subsequent human PBMC assay, DNA-mediated activation of TLR9, IL-6 and IFN-α
- Type: cell-based
- PARTICULARS: IC50 IFN-α Ave., human PBMC; ligand ODN2006-DOTAP; average of donors
pIC50: −log10 of the molar value.
RECORDED ENDPOINT: pIC50

Consider C[C@@H]1CN(c2ccc(C#N)c3ncccc23)C[C@H](C(=O)N[C@H]2CNC[C@H]2F)O1.Cl [ER-899742, hydrochloride] . Its measured pIC50 is < 5.00

###

- EXPERIMENTAL TARGET: mouse TLR7 (Mus musculus, UniProt P58681)
- PROCEDURE TEXT: Short-term in vivo (STIV) assay: oral dosing, R848 s.c., plasma IL-6
- Design: female BALB/c mice (Jackson Labs, Bar Harbor, Me.) were dosed by oral gavage; tissue Jackson Labs; host or cells: living female BALB/c mice; plasma IL-6 after s.c. R848
- PARTICULARS: 13 h; 300 mg/kg
RECORDED ENDPOINT: % Suppression vs. Vehicle
The reply must contain the numeric value and, after it, the unit.

Consider CC1CN(c2ccc(C#N)c3ncccc23)CC(C(=O)N2CC3(CCNC3)C2)O1 (stereo not drawn) [ER-899017] . Its measured % Suppression vs. Vehicle is 10%

Consider CC1CN(c2ccc(C#N)c3ncccc23)CC(C(=O)NC2CCNCC2)O1 (stereo not drawn) [ER-898946] . Its measured % Suppression vs. Vehicle is 55%

Consider CC1CN(c2ccc(C#N)c3ncccc23)CC(C(=O)NCC2CNCCO2)O1 (stereo not drawn) [ER-898694] . Its measured % Suppression vs. Vehicle is 53%

###

- EXPERIMENTAL TARGET: mouse TLR7 (Mus musculus)
- PROCEDURE TEXT: Short-term in vivo (STIV) assay: oral dosing, R848 s.c., plasma IL-6
- Set-up: female BALB/c mice (Jackson Labs, Bar Harbor, Me.) were dosed by oral gavage; tissue Jackson Labs; host or cells: living female BALB/c mice; plasma IL-6 after s.c. R848
- PARTICULARS: 19 h; 300 mg/kg
RECORDED ENDPOINT: % Suppression vs. Vehicle (%)
The response must be a number in % with no trailing unit.

>>> value_reported("CC1CN(c2ccc(C#N)c3ncccc23)CC(CN2CCC(N(C)C)CC2)O1 (centres unmarked) [ER-887725]")
99
>>> value_reported("CC1CN(c2ccc(C#N)c3ncccc23)CC(CN2CCCC2CO)O1 (centres unmarked) [ER-886814]")
100
>>> value_reported("CC1CN(c2ccc(C#N)c3ncccc23)CC(CN2CCNC(C)C2C)O1 (centres unmarked) [ER-887137]")
100
>>> value_reported("C[C@@H]1CN(c2ccc(C#N)c3ncccc23)C[C@H](CN2CCC(O)CC2)O1 [ER-886953]")
99

Next item in the queue.
Consider COc1cccnc1NC[C@H]1CN(c2ccc(C#N)c3ncccc23)C[C@@H](C)O1 [ER-886948] . Its measured % Suppression vs. Vehicle is 49
